- ASSAY_TEXT: small molecules boosting NK-mediated OVCAR3 lysis – imaging, primary NK cells, calcein-AM imaging, primary screen (AID 1508625);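 note: compound given to NK cells 16 h before adding targets at 1.5 to 1 ratio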
- CONDITION_CONTEXT: OVCAR3 lysis by primary NK cells, at 5 µM
So I've got a bunch of molecules here, and I need their corrected activity, negative = more killing values.

Consider the reported corrected activity, negative = more killing for these molecules:
C#CCOc1ccc2c(c1)c(C(C)=O)c(C)n2-c1ccc(OCC)cc1 ... -1.52%
O=C(Nc1ccc(Oc2ccccc2)cc1)c1nn(-c2ccc(Cl)cc2)c(=O)c2ccccc12 ... -3.15%
COc1ccc2nc3oc(C(=O)NCCc4ccc(Cl)cc4)cc3cc2c1 ... -5.81%
CCCCn1c(=S)[nH]c2cc3ccccc3cc2c1=O ... -1.52%

Working through the 3 molecules below one at a time, give corrected activity, negative = more killing for each.
1. S=C(c1nc2ccccc2[nH]1)N1CCOCC1
2. CCOc1ccc2nc(SCC(=O)Nc3ccccc3C(=O)O)sc2c1
3. CC(C(=O)O)N1C(=O)C2C3CCC(C3)C2C1=O (configuration not stated)

Result:
["-3.36%", "-4.64%", "1.01%"]

====

- ASSAY_TEXT: small molecules boosting NK-mediated OVCAR3 lysis – imaging, primary NK cells, calcein-AM imaging, primary screen (AID 1508625);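 note: compound given to NK cells 16 h before adding targets at 1.5 to 1 ratio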
- CONDITION_CONTEXT: OVCAR3 lysis by primary NK cells, at 5 µM
RECORDED_METRIC: corrected activity, negative = more killing (%)
One number for each entry, in %.

Consider the reported corrected activity, negative = more killing for these molecules:
COc1ccccc1Cn1c(=S)[nH]c2cc(Cl)ccc2c1=O ... -3.97
O=C(NCC1CCCO1)c1ccc(COc2ccc(Cl)cc2)cc1 (stereo not given) ... -2.84
Nc1cc(OC(=O)c2cccs2)nn1S(=O)(=O)c1ccccc1 ... -4.31
O=C(CCn1c(=O)c2sccc2n(Cc2cc(=O)n3ccccc3n2)c1=O)NCc1ccc2c(c1)OCO2 ... -7.55
CCCOc1cccc(C(=O)Nc2ccc3nn(-c4ccc(OC)cc4)nc3c2)c1 ... -3.41
COC(=O)c1cc(OC)c(OC)cc1NC(=O)c1cc(Cl)ccc1Cl ... -1.51
COc1ccc(OC)c(NC(=O)c2cc3c(=O)n4ccccc4nc3s2)c1 ... -6.86
Cc1cc(C)cc(NS(=O)(=O)c2ccc3[nH]cc(C(=O)NCc4cccs4)c(=O)c3c2)c1 ... -6.12

Working through the 2 molecules below one at a time, give corrected activity, negative = more killing for each.
1. CCOc1ccc(C2C(N3C(=O)c4cccc([N+](=O)[O-])c4C3=O)C(=O)N2c2cc(Cl)ccc2C)cc1 (stereo not given)
2. CCOC(=O)c1ccc(NC(=O)CCc2ccccc2)cc1

Result:
-3.8
-3.6

====

- ASSAY_TEXT: small molecules boosting NK-mediated OVCAR3 lysis – imaging, primary NK cells, calcein-AM imaging, primary screen (AID 1508625);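 note: compound given to NK cells 16 h before adding targets at 1.5 to 1 ratio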
- CONDITION_CONTEXT: OVCAR3 lysis by primary NK cells, at 5 µM
So I've got a bunch of compounds here, and I need their corrected activity, negative = more killing values.
One number for each entry, in %.

Consider the reported corrected activity, negative = more killing for these compounds:
COCc1cc(C)[nH]c(=O)c1C(=O)NC12CC3CC(CC(C3)C1)C2 ... -5.27
Cc1sc(NC(=O)C2c3ccccc3Oc3ccccc32)c(C(N)=O)c1C ... -5.26
N#Cc1c(NC(=O)c2ccc(Cl)c(S(=O)(=O)N3CCOCC3)c2)sc2c1CCCC2 ... -5.49
CC(C)C(NC(=O)c1ccccc1)C(=O)NC1=NCCS1 (stereo unspecified) ... -2
Cc1ccc(OCc2ccc([N+](=O)[O-])cc2)cc1C ... -1.29
CCOc1ccc(-n2c(SCC(=O)c3ccccc3)nc3c([nH]c4ccccc43)c2=O)cc1 ... -9

Working through the 4 compounds below one at a time, give corrected activity, negative = more killing for each.
1. CC1(C)NN=C(N)SC1=O
2. CCc1ccc(-c2nc3ccccc3c(C(=O)O)c2C)cc1
3. O=C1c2ccccc2C(=O)N1C1C(=O)N(c2cccc(C(F)(F)F)c2)C1c1ccc(F)cc1 (stereo unspecified)
4. Cc1ccc2cccnc2c1[N+](=O)[O-]

Result:
1. -0.451
2. -3.44
3. -1.28
4. -3.53

Q: Entry CCc1ccccc1-n1cnc2cc(C(=O)NCc3ccc(C)cc3)ccc21 has what corrected activity, negative = more killing?
Result: -4.47

====

So I've got a bunch of molecules here, and I need their corrected activity, negative = more killing values.
- ASSAY_TEXT: small molecules boosting NK-mediated OVCAR3 lysis – imaging, primary NK cells, calcein-AM imaging, primary screen (AID 1508625);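 note: compound given to NK cells 16 h before adding targets at 1.5 to 1 ratio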
- CONDITION_CONTEXT: OVCAR3 lysis by primary NK cells, at 5 µM
One number for each entry, in %.

Consider the reported corrected activity, negative = more killing for these molecules:
CCN(CC)CCCn1c(=S)[nH]c2cc(C(=O)OC)ccc2c1=O ... -3.76
Cc1cc(Br)ccc1NC(=O)Cn1cnc2sc(C)c(S(=O)(=O)N3CCN(C)CC3)c2c1=O ... -7.06
FC(F)(F)c1ccc(Oc2cccc(C(F)(F)F)c2)nc1 ... -1.98
O=C1C2CC=C(Cl)CC2C(=O)N1CC1OCCc2ccccc21 (stereo unspecified) ... -3.37
Cn1c(SCC(=O)Nc2cccc3ccccc23)nc2c([nH]c3ccccc32)c1=O ... -9.34

Working through the 2 molecules below one at a time, give corrected activity, negative = more killing for each.
1. c1ccc(-c2nnc3n2C2(CCCCC2)Cc2ccccc2-3)cc1
2. Clc1ccc(CSc2ncnc3c2oc2ccccc23)cc1

Result:
1. 0.806
2. -4.09

Working through the 3 molecules below one at a time, give corrected activity, negative = more killing for each.
1. COc1cc(NC(=O)c2cccs2)ccc1NC(=O)c1ccccc1Cl
2. O=C(Nc1ccc(Br)cc1)c1ccccc1I
3. O=C(Cn1cnc2ccccc2c1=O)NCCC(=O)N1CCOCC1

Result:
[-4.46, -1.25, -5.47]

Q: Entry CCCC(=O)Nc1cc(-c2nc3ccc(C)cc3o2)ccc1Cl has what corrected activity, negative = more killing?
Result: -2.67

====

- ASSAY_TEXT: small molecules boosting NK-mediated OVCAR3 lysis – imaging, primary NK cells, calcein-AM imaging, primary screen (AID 1508625);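 note: compound given to NK cells 16 h before adding targets at 1.5 to 1 ratio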;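 for Z-score: more negative robust z means stronger NK killing of tumor cells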
- CONDITION_CONTEXT: OVCAR3 lysis by primary NK cells, at 5 µM; measured here: robust Z-score, single-point normalisation
RECORDED_METRIC: z-score

Consider the reported z-score for these molecules:
CCC(=O)Nc1ccccc1C(=O)C(=O)Nc1ccccc1 ... -0.557
CCOC(=O)C1CCN(c2ccc([N+](=O)[O-])cc2S(=O)(=O)N2CCOCC2)CC1 ... -0.939
O=c1nc(C=Cc2ccc(Br)cc2)cc(C(F)(F)F)[nH]1 ... 0.256

Working through the 3 molecules below one at a time, give z-score for each.
1. O=C1C(=O)N(CO)C(c2ccccc2)C1=C(O)c1ccccc1 (stereo unspecified)
2. CN1C(=O)C(=O)C(=C(O)c2ccc(Br)cc2)C1c1ccccc1 (stereo unspecified)
3. CC(C)Oc1ccc(CNC2CCOC(C)(C)C2)cc1 (stereo unspecified)

Result:
1: -1.23; 2: -0.867; 3: -1.2

====

- ASSAY_TEXT: small molecules boosting NK-mediated OVCAR3 lysis – imaging, primary NK cells, calcein-AM imaging, primary screen (AID 1508625);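 note: compound given to NK cells 16 h before adding targets at 1.5 to 1 ratio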
- CONDITION_CONTEXT: OVCAR3 lysis by primary NK cells, at 5 µM
So I've got a bunch of compounds here, and I need their corrected activity, negative = more killing values.
Give bare numbers, in %.

CCOc1cccc(-c2cc(C(=O)O)c3ccccc3n2)c1 ... -4.28
CC(C)c1ccc(OCC(=O)Nc2ccc3c(c2)OCCO3)cc1 ... -2.45
CCCCN(C(=O)c1cnc2n(c1=O)CCS2)c1ccccc1 ... -5.28
Cc1nc2ccc3nc(NC(=O)c4cc([N+](=O)[O-])ccc4Cl)sc3c2s1 ... -2.51
COc1cc2c(cc1NC(=O)C(C)c1ccc([N+](=O)[O-])cc1)oc1ccccc12 (configuration not stated) ... -2.25

Working through the 5 compounds below one at a time, give corrected activity, negative = more killing for each.
1. COc1ccc(N(CC(=O)Nc2c(C)n(C)n(-c3ccccc3)c2=O)S(C)(=O)=O)c(OC)c1
2. COc1cc(OC)c(OC)cc1CN1CCN(C(=O)c2ccncc2)CC1
3. CCn1cnc2sc(C(=O)Nc3cccc([N+](=O)[O-])c3)c(C)c2c1=O
4. COc1cc(C(=S)N2CCCCC2)ccc1OC(=O)c1ccc(C)cc1
5. Cc1cc(C)n(C(=O)c2nn(C)cc2I)n1

Result:
1. -0.645
2. -2.22
3. -2.56
4. -4.49
5. -2.43

Working through the 5 compounds below one at a time, give corrected activity, negative = more killing for each.
1. CCC(Cc1ccccc1)NS(=O)(=O)c1ccc(F)c(C(=O)Nc2ccc(C)c(F)c2)c1 (configuration not stated)
2. Cc1c(C(=O)O)oc2ccc(S(=O)(=O)N3CCOCC3)cc12
3. O=C(Nc1cc([N+](=O)[O-])ccc1Cl)c1cnc2n(c1=O)CCS2
4. O=C(CCn1c(SCc2ccccc2Cl)nc2cc3c(cc2c1=O)OCO3)N1CCN(c2ccccc2)CC1
5. Cc1cc(C)c(S(=O)(=O)NCc2ccc(C(=O)NCCc3ccc(Cl)cc3)cc2)c(C)c1

Result:
[-2.04, -2.57, -1.04, -5.52, -5.64]

Working through the 7 compounds below one at a time, give corrected activity, negative = more killing for each.
1. O=C(Nc1ccc2nn(-c3cccc(Cl)c3)nc2c1)c1cccc2ccccc12
2. O=C1NC(=S)N(c2ccc(Cl)cc2)C(=O)C1=Cc1cc(Br)ccc1O
3. Cc1cc(Br)c(O)c(C=NCCNC(=O)c2nonc2N)c1
4. Cc1ccc(NC(=O)CSc2nc3c(cc2C#N)CCCCC3)cc1
5. CC(C)c1ccc(NC(=O)C2c3ccccc3C(=O)N(C)C2c2cccs2)cc1 (configuration not stated)
6. CON1C(=O)C(C)(C)N(OC)C(=O)C1(C)C
7. CCOc1ccc(-c2n[nH]c(C(=O)NN=Cc3cccnc3)c2C)cc1

Result:
-3.42
-3.58
0.42
2.66
-7.64
2.31
-3.11

Working through the 4 compounds below one at a time, give corrected activity, negative = more killing for each.
1. COc1ccc(C2=NN(c3nc(-c4ccc(OC)c(F)c4)cs3)C(c3ccco3)C2)cc1 (configuration not stated)
2. Cc1sc2nc(SCC(=O)Nc3ccc(N(C)C)cc3)[nH]c(=O)c2c1C
3. O=C(Nc1c[nH]c(=O)[nH]c1=O)c1ccc(N2C(=O)C3C4C=CC(C4)C3C2=O)cc1 (configuration not stated)
4. CCOC(=O)c1conc1-c1cccs1

Result:
-2.68
-4.5
0.344
-0.622

Working through the 5 compounds below one at a time, give corrected activity, negative = more killing for each.
1. O=C(O)C1C2C=CC(O2)C1C(=O)Nc1ccccc1C(F)(F)F (configuration not stated)
2. Cc1cccc(C)c1OCCCCCCN1CCOCC1
3. Cc1ccc(C(=O)Nc2ccc3nn(-c4cccc(Cl)c4)nc3c2)cc1[N+](=O)[O-]
4. COc1ccc(C2NC(=O)c3c(sc4c3CCCC4)N2)cc1OC (configuration not stated)
5. CCSc1nnc(NC(=O)CSc2nc3c(c(=O)n2-c2ccccc2OC)SCC3)s1

Result:
[-3.8, -1.15, -0.361, -2.78, -4.89]

Q: Entry COC(=O)c1ccc(CN2CCN3CCCC3C2C2CCCCC2)cc1 (configuration not stated) has what corrected activity, negative = more killing?
Result: -2.78

Each recorded value in this set is attributed to PubChem BioAssay AID1508625.
